# Barnyardgrass plant response rating per entry
Test system: barnyardgrass (Echinochloa crus-galli)
Test: Test A postemergence, visual injury rating
Assay type: in vivo
Conditions: 125 g ai/ha, 0 to 100 scale, 0 is no effect, 100 is complete control, approximately 10 days
Source text: […]
Lab note: record the figure alone, no unit after it.

INSERT INTO assay_data (molecule, measure_name, endpoint_value) VALUES
  ('N#Cc1cccc(Oc2ncc(Cl)cn2)c1C(=O)CCCCC(F)(F)F [Compound 109]', 'Barnyardgrass plant response rating', 0);

Req: Supply Barnyardgrass plant response rating measured with barnyardgrass (Echinochloa crus-galli) for C=CCSC(=O)c1c(Br)cccc1Oc1ncc(Cl)cn1 [Compound 91] .
Resp: 30

Req: Supply Barnyardgrass plant response rating measured with barnyardgrass (Echinochloa crus-galli) for CCSC(=O)c1c(Br)cccc1Oc1ncc(Cl)cn1 [Compound 83] .
Resp: 0

Req: Supply Barnyardgrass plant response rating measured with barnyardgrass (Echinochloa crus-galli) for FC(F)(F)CCCCCc1c(Cl)cccc1Oc1ncc(Cl)cn1 [Compound 124] .
Resp: 60

Req: Supply Barnyardgrass plant response rating measured with barnyardgrass (Echinochloa crus-galli) for O=C(OCCC(F)(F)F)c1cc(Cl)ccc1Oc1ncc(Cl)cn1 [Compound 88] .
Resp: 0

Req: Supply Barnyardgrass plant response rating measured with barnyardgrass (Echinochloa crus-galli) for O=C(NCCC(F)(F)F)c1c(Br)cccc1Oc1ncc(Cl)cn1 [Compound 93] .
Resp: 0

Req: Supply Barnyardgrass plant response rating measured with barnyardgrass (Echinochloa crus-galli) for O=C(CCC(F)(F)F)c1c(Cl)cccc1Oc1ncc(Cl)cn1 [Compound 107] .
Resp: 90
